Tested on: PPARg DBDmut IVT, anti-PPARg (DBD mutation: PPARg1 K132A/R137A, NR concentration 270 nM)
assayInfo: PBM binding z-score (relative to random genomic background probes); higher = stronger binding; sequences stand for … in GC…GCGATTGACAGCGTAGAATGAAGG
Please use the following PBM binding z-score ranges when assigning a class: LOW = under -0.05, MEDIUM = from -0.05 up to 1, HIGH = 1 and over

q: // return the class label for `CCTACTGGGCCATCAGGTCATTTATATCAACGTT`
a: MEDIUM

q: Moving on to `ACCGAAAGGTCGACGAGGTGAGTATACACCGTTT`
a: MEDIUM

Next:
q: // return the class label for `GCAGACAGGTGAAACGCAGGTACCTCAGGGTGGC`
a: LOW

q: Moving on to `TGAATGAGGTTATCAGATCAGGGAACGTTGCAAA`
a: LOW

---

Tested on: RARb homodimer (NR concentration 270 nM)
assayInfo: PBM binding z-score (relative to random genomic background probes); higher = stronger binding; sequences stand for … in GC…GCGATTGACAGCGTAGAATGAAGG
measurementName: PBM binding z-score
Numbers only.

Example cases with answers are listed next.
q: Name the recorded PBM binding z-score for `GCTTGTAGTTCAAGGTTAAGAAAGACTAAGCTAA` .
a: 1.6

q: Moving on to `ATCTCTAGGTAAAGATAGGTCAGTGAATGCAAAT`
a: 2.4

q: Moving on to `TCTATTGGTTGATTAGGGCAACCGAAACAGCGGA`
a: 0.698

q: Moving on to `CCTTACGGGTCACTGACAGGATATAGCATTTGGA`
a: 2.9

q: Moving on to `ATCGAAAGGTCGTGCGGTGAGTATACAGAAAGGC`
a: 2.65

Hi there! I need PBM binding z-score for each item below, if you can.
1. ATGGAAAGGTCGACGAGGTGAGTATACACCGTTT
2. CCTATTACTTGACCATAAGGGCAACCGAAGCTCG

a:
1: 3.01; 2: 1.99

---

Kindly supply the reported PBM binding z-score values for the records listed here.
System: FXR:RXRa (NR concentration 270 nM, RXRa partner concentration 90 nM)
assayInfo: PBM binding z-score (relative to random genomic background probes); higher = stronger binding; sequences stand for … in GC…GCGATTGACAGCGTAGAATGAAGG
Answers are plain numbers.

q: # returns recorded PBM binding z-score (system: FXR:RXRa (NR concentration 270 nM, RXRa partner concentration 90 nM)) for `GCTGCTAGGTCACGTTGGTCAGCTAACGGGTACG`
a: 3.59

q: Moving on to `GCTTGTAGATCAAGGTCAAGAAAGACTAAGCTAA`
a: 3.17

q: Moving on to `CAAACTGGGTCACCGGAAGGTCAAAGTCCGCATG`
a: 5.54

q: Moving on to `ACTCGGAGGACAACGGTCAGAGCTACGCCAGTGA`
a: 0.0223

q: Moving on to `ATCGAGAGGTCGACGAGGTGAGTATACACCGTTT`
a: 3

Hi there! I need PBM binding z-score for each item below, if you can.
1. GCTTACGGGTCAAGGGTTATAGCATGAATAGAAT
2. ATCTCTAGGTAACAAGTTCACTGAAAGAGAGGAC
3. CGTCCAAGGTCAATGCTAGGTCAGCGAAAGCATT

a:
1. 7
2. 1.15
3. 6.63

Hi there! I need PBM binding z-score for each item below, if you can.
1. ATCGAAAGGTCGAGGTGAGTATTGAGAAAGGGAA
2. TCATATAGGTAAAGGTGAATGTCGAACGATATGA
3. TCATATAGGTAATACAGGTCAAAGTCGGCATCTA
4. ATCTCTAGGTACGACTCAGTTCAGTGAAGAACGC

a:
[4.14, 0.972, 3.34, 0.373]

---

Tested on: PPARg:RXRa 90nM:30nM, anti-RXR (NR concentration 90 nM, RXRa partner concentration 30 nM)
assayInfo: PBM binding z-score (relative to random genomic background probes); higher = stronger binding; sequences stand for … in GC…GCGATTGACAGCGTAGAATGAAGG
measurementName: PBM binding z-score
Numbers only.

q: Name the recorded PBM binding z-score for `ATATGTAGGTTACATCCGGGTCATACAGGCTATG` .
a: 4.81

Hi there! I need PBM binding z-score for each item below, if you can.
1. ACTTACGGGTCAACGAGGTGATAGCACGCGTATA
2. ATCTCTAGGTCAAGTTCAGTGAAAGATCGATAGA
3. CAAACTATGTCAAAGGTCAAAGTCGAGCCAACCA

a:
1. 4.11
2. 4.77
3. 11.8

Hi there! I need PBM binding z-score for each item below, if you can.
1. CTCGAAAGGTCGGCTGAGGTGAGTATACGGATAA
2. CGACCTAGGTCATTGACAGGACAGTGAATAGTAA
3. CCAGTCAGGTGAGAAGGTAACTCAGCCTCGATTA

a:
1: 1.12; 2: 2.01; 3: 0.619

Hi there! I need PBM binding z-score for each item below, if you can.
1. TCAGACGGGTGAAGGTAACTCAGGTACGCAGTCG
2. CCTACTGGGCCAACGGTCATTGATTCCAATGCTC
3. CCTAGTTGGTCAAGGTTACACACGCTATAGGTAC
4. CCTGCTAGGTAATGGTCAGCTAATCTACAGTATG

a:
1: 2.17; 2: 5.61; 3: 1.81; 4: -0.424

q: Name the recorded PBM binding z-score for `GCTAGCAGGCTATTTGGGTCACTCAATGACGGGC` .
a: 0.706

---

Kindly supply the reported PBM binding z-score values for the records listed here.
Test system: FXR:RXRa (NR concentration 270 nM, RXRa partner concentration 90 nM)
assayInfo: PBM binding z-score (relative to random genomic background probes); higher = stronger binding; sequences stand for … in GC…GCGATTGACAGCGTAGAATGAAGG

q: Name the recorded PBM binding z-score for `CGACCAAGGTCAGAGAGGTCAGTGAATGCCGAGT` .
a: 6

Hi there! I need PBM binding z-score for each item below, if you can.
1. CAAACTAGGTCAAAGTTCAAAGTCGAGCCAACCA
2. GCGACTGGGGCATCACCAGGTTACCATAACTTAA
3. TCTTGTGGATCAACAGGAGGTTAAGAAAGATCGA
4. TTACCAAGGTGAAAGGTCGTGGATGCACGCCTTG
5. CCTTACGGTTCACTCCAGGTTATAGCATCGGAGT
6. ACTGTTAGTTGAGACGAGGGCAACCGATAGGTTG

a:
1: 7.56; 2: -0.25; 3: 0.0119; 4: 3.68; 5: 2.82; 6: 0.919

Hi there! I need PBM binding z-score for each item below, if you can.
1. GGAACGAGTGCAAAGTTGATAGCATCTGTCGACG
2. AGAACGAGGGCAATGAGTTGCTAGCACGGGTGGC
3. CAAACTAGGTAACAGAGGTCAAAGTCCGTGCGTA
4. CGGCCAAGGTCAATGCTAGGTCAGTGAAAGCATT
5. CCTACTGGGCCATTCGGAGGTCATTGATCATATG

a:
0.106
0.0307
5.29
6.95
1.8

---

Kindly supply the reported PBM binding z-score values for the records listed here.
System: FXR:RXRa (NR concentration 270 nM, RXRa partner concentration 90 nM)
assayInfo: PBM binding z-score (relative to random genomic background probes); higher = stronger binding; sequences stand for … in GC…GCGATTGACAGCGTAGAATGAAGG
Give bare numbers.

Example cases with answers are listed next.
q: Name the recorded PBM binding z-score for `GGAACGAGGGCAAGCTGATAGCAGAGTTTGATGG` .
a: 0.351

q: Moving on to `CTACCAAGGTGAACAAGGTGGTTGATTACTATTC`
a: 0.298

q: Moving on to `TCTATAAGTTGATTAGGGCAACCGAAACAGCGGA`
a: 0.561

q: Moving on to `CTCGAAAGGTCGGTTGAGATGAGTATACGGATAA`
a: 1.6

q: Moving on to `CCTATTAGTTGACCATAAGTGCAACCGAAGCTCG`
a: 0.669

q: Moving on to `GCTAGTTGGTCAGTAGAAGGTCACACACCGGTCG`
a: 1.88

q: Moving on to `GCGGCTAGGTCAGGTTGGTCAGCTAACGGGTACG`
a: 1.14

q: Moving on to `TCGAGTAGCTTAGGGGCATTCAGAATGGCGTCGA`
a: -0.301

Hi there! I need PBM binding z-score for each item below, if you can.
1. CCGAGTAGGTTATGGGGAATTCAGGCAACGGTGA
2. CGTCCAAGGTCAGCAGTTCAGTGAAAGCGACGTG
3. CCTACTGGGCCATGCAGAGGTCATTGATCATATG
4. ATCTCTAGGAAAAGTTCAGTGAAAGATCGATAGA

a:
0.109
5.17
2.63
0.71

From: the supplement of paper PMC6555819
